Numbers sourced from paper PMC8699473.

# experiment-notes: Short-term stability in spiked pooled human plasma (bench-top, 4 °C, 56 °C)
# assay-setup: validation standard ULOV
So basically: Short-time stability (24h, RT, without daylight) Accuracy [%] at 90% or higher? That is Fulfilled. Lower than 90%? That is Not fulfilled.

| molecule | discrete-label |
| --- | --- |
| COc1cc2c(Nc3ccc(Br)cc3F)ncnc2cc1OCC1CCN(C)CC1 [Vandetanib] | Not fulfilled |
| O=C(c1cc(Cc2n[nH]c(=O)c3ccccc23)ccc1F)N1CCN(C(=O)C2CC2)CC1 [Olaparib] | Fulfilled |
| C=CC(=O)Nc1cc(Nc2nccc(-c3cn(C)c4ccccc34)n2)c(OC)cc1N(C)CCN(C)C [Osimertinib] | Not fulfilled |
| Cc1ccc(NC(=O)c2ccc(CN3CCN(C)CC3)cc2)cc1Nc1nccc(-c2cccnc2)n1 [Imatinib] | Not fulfilled |
| Nc1cccc2c1CN(C1CCC(=O)NC1=O)C2=O (stereo not drawn) [Lenalidomide] | Not fulfilled |
| Cc1cc(Nc2ncc(Cl)c(Nc3ccccc3S(=O)(=O)C(C)C)n2)c(OC(C)C)cc1C1CCNCC1 [Ceritinib] | Fulfilled |
| CC(C)(C)c1nc(-c2cccc(NS(=O)(=O)c3c(F)cccc3F)c2F)c(-c2ccnc(N)n2)s1 [Dabrafenib] | Fulfilled |
| N#CC[C@H](C1CCCC1)n1cc(-c2ncnc3[nH]ccc23)cn1 [Ruxolitinib] | Fulfilled |
| CNC(=O)c1ccc(N2C(=S)N(c3ccc(C#N)c(C(F)(F)F)c3)C(=O)C2(C)C)cc1F [Enzalutamide] | Fulfilled |

----------
Listing of recorded Short-time stability (1h, 56°C) Accuracy [%] by entry.
# experiment-notes: Short-term stability in spiked pooled human plasma (bench-top, 4 °C, 56 °C)
# assay-setup: validation standard ULOV
experimental-readout: Short-time stability (1h, 56°C) Accuracy [%] (%)

| compound | units-text | measured |
| --- | --- | --- |
| Cc1cc(Nc2ncc(Cl)c(Nc3ccccc3S(=O)(=O)C(C)C)n2)c(OC(C)C)cc1C1CCNCC1 | % | 32.0 |
| C=CC(=O)Nc1cc(Nc2nccc(-c3cn(C)c4ccccc34)n2)c(OC)cc1N(C)CCN(C)C | % | 26.0 |
| CCN1CCN(Cc2ccc(Nc3ncc(F)c(-c4cc(F)c5nc(C)n(C(C)C)c5c4)n3)nc2)CC1 | % | 34.9 |
| C#Cc1cccc(Nc2ncnc3cc(OCCOC)c(OCCOC)cc23)c1 | % | 45.8 |
| O=C1CN2Cc3c(ccc(Cl)c3Cl)N=C2N1 [Anagrelide] | % | 46.2 |
| CC(=O)Nc1cccc(-n2c(=O)n(C3CC3)c(=O)c3c(Nc4ccc(I)cc4F)n(C)c(=O)c(C)c32)c1 | % | 47.5 |

----------
# experiment-notes: Autosampler stability of ready for injection samples
# Type: physicochemical, human
# assay-setup: validation standard MOV
Listing of recorded Autosampler (24h, 4°C) Accuracy [%] by entry.
experimental-readout: Autosampler (24h, 4°C) Accuracy [%] (%)

| compound | measured |
| --- | --- |
| O=C(c1cc(Cc2n[nH]c(=O)c3ccccc23)ccc1F)N1CCN(C(=O)C2CC2)CC1 | 100.5 |
| COc1cc2nccc(Oc3ccc(NC(=O)C4(C(=O)Nc5ccc(F)cc5)CC4)cc3)c2cc1OC [Cabozantinib] | 105.6 |
| CNCc1ccc(-c2[nH]c3cc(F)cc4c3c2CCNC4=O)cc1 | 104.6 |
| C[C@]12CC[C@H](O)CC1=CC[C@@H]1[C@@H]2CC[C@]2(C)C(c3cccnc3)=CC[C@@H]12 | 104.6 |
| COc1cc2nccc(Oc3ccc(NC(=O)NC4CC4)c(Cl)c3)c2cc1C(N)=O | 100.6 |
| CNC(=O)c1cc(Oc2ccc(NC(=O)Nc3ccc(Cl)c(C(F)(F)F)c3)cc2)ccn1 | 101.0 |
| CCN(CC)CCNC(=O)c1c(C)[nH]c(/C=C2\C(=O)Nc3ccc(F)cc32)c1C | 111.8 |
| C[C@H]1Oc2cc(cnc2N)-c2c(nn(C)c2C#N)CN(C)C(=O)c2ccc(F)cc21 | 102.0 |
| Cc1ccc(NC(=O)c2ccc(CN3CCN(C)CC3)cc2)cc1Nc1nccc(-c2cccnc2)n1 | 108.3 |
| C=CC(=O)Nc1cc(Nc2nccc(-c3cn(C)c4ccccc34)n2)c(OC)cc1N(C)CCN(C)C | 103.8 |
| Nc1cccc2c1CN(C1CCC(=O)NC1=O)C2=O (centres unmarked) [Lenalidomide] | 107.0 |
| O=C(Nc1cnn2ccc(N3CCC[C@@H]3c3cc(F)ccc3F)nc12)N1CC[C@H](O)C1 | 104.6 |
| O=C1CN2Cc3c(ccc(Cl)c3Cl)N=C2N1 [Anagrelide] | 104.6 |
| NC(=O)c1cccc2cn(-c3ccc([C@@H]4CCCNC4)cc3)nc12 | 104.6 |
